Sourced from patent US20150190494A1

# study.system: T1, fH67 (UniProt P08603 321-443)
# T1 construct: domain: fH67; Flowed as analyte over immobilised fHbps in SPR; also called factor H
# T1 sequence: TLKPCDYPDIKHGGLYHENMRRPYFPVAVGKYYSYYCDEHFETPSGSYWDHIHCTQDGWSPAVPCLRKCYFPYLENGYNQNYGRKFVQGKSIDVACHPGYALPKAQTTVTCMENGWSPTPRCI
# measurement.description: SPR, fHbp immobilised on sensor chip, fH67 flowed over

binder	Relative Kd [fold against WT V2 fHbp]
M4A V2 fHbp (S35G/D107S/S137G/G138D) (other) CSSGGGGVAADIGAGLADALTAPLDHKDKGLQSLTLDQSVRKNEKLKLAAQGAEKTYGNGDSLNTGKLKNDKVSRFDFIRQIEVDGQLITLESGEFQIYKQSHSAVVALQIEKINNPDKIDSLINQRSFLVGDLGGEHTAFNQLPSGKAEYHGKAFSSDDPNGRLHYSIDFTKKQGYGRIEHLKTPEQNVELASAELKADEKSHAVILGDTRYGGEEKGTYHLALFGDRAQEIAGSATVKIREKVHEIGIAGKQ	2.39
